- PROCEDURE SUMMARY: Solubility by nephelometric method
- Assay type: physicochemical
- MEASUREMENT CONDITIONS: water, kinetic from dmso stock; solubility limit in H2O; read-out: Solubility
ENDPOINT NAME: solubility (µM)
One number for each entry, in µM.

Q: Find the recorded solubility belonging to N#Cc1cccnc1N1CCN(S(=O)(=O)c2ccc(-c3ccc(=O)[nH]n3)s2)CC1 and report it.
A: 25

* * *

- Test system: PSAC
- PROCEDURE SUMMARY: Transport inhibition assay: PSAC block by osmotic lysis of infected cells in sorbitol (transmittance)
- Format: cell-based, P. falciparum
- MEASUREMENT CONDITIONS: Table 6
What PSAC K0.5 was measured for each of the following?
Numbers only, in µM.

Q: Recorded PSAC K0.5 for Cc1nccnc1N1CCN(S(=O)(=O)c2ccc(-c3ccc(=O)[nH]n3)s2)CC1 [MBX-4055] with PSAC, please?
A: 0.021

Q: Consider next the compound N#Cc1cccnc1N1CCN(S(=O)(=O)c2ccc(-c3ccc(=O)[nH]n3)s2)CC1 [MBX-2997] in the same way.
A: 0.007

Q: How about N#Cc1ccncc1N1CCN(C(=O)c2ccc(C(=O)N3CCCC3)s2)CC1 [MBX-4075] ?
A: 1.08

# evaluate next
Q: Give recorded PSAC K0.5 with PSAC for the following compound: Cc1ccc(C)c(N2CCN(S(=O)(=O)c3ccc(-c4ccc(=O)[nH]n4)s3)CC2)c1 [ISG-21, reference compound]
A: 0.003

* * *

- PROCEDURE SUMMARY: Mammalian cytotoxicity, HeLa cells, 72 hr, MTS
- Type: cell-based, human
- MEASUREMENT CONDITIONS: human, HeLa cells; 3 days; Table 6; read-out: HeLa CC50
ENDPOINT NAME: CC50 at 72 h

Q: Record request: CC50 at 72 h value, item N#Cc1cccnc1N1CCN(S(=O)(=O)c2ccc(-c3ccc(=O)[nH]n3)s2)CC1
A: > 200 µM

* * *

- PROCEDURE SUMMARY: Solubility by nephelometric method
- Assay type: physicochemical
- MEASUREMENT CONDITIONS: water, kinetic from dmso stock; H2O; Table 4; read-out: Sol., solubility limit in H2O
ENDPOINT NAME: solubility (µM)
Answers are plain numbers, in µM.

Q: # query: solubility of entry Cc1ccc(C)c(N2CCN(S(=O)(=O)c3ccc(-c4ccc(=O)[nH]n4)s3)CC2)c1 [ISG-21, reference compound]
A: 25

* * *

- SYSTEM NAME: UniProt P08684
- Sequence (P08684 whole entry, species assumed): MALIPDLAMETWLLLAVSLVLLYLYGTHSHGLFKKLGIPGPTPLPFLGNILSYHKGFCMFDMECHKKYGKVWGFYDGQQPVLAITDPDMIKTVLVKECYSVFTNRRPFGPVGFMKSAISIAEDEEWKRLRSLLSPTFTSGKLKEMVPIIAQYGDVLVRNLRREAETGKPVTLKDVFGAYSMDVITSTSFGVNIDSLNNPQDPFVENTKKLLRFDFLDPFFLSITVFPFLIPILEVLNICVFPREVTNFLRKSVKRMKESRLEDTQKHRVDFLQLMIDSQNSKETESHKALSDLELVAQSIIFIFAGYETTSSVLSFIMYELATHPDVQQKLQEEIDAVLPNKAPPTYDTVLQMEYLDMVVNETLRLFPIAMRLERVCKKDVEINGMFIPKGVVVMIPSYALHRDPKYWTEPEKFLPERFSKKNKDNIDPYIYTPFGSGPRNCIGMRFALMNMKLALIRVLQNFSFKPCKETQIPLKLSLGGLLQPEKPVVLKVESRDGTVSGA
- PROCEDURE SUMMARY: Cytochrome P450 inhibition, fluorogenic substrate assay
- Type: in vitro ADME
- MEASUREMENT CONDITIONS: human, Table 4, read-out: Cyp 3A4 % Inhib
ENDPOINT NAME: inhibition at 5 µM (%)
One number for each entry, in %.

Q: Recorded inhibition at 5 µM of Cc1ccc(C)c(N2CCN(S(=O)(=O)c3ccc(-c4ccc(=O)[nH]n4)s3)CC2)c1 [ISG-21, reference compound] , please.
A: 0

Origin of measurements: patent US20240166637A1
